Biological target: T1, recombinant human VEGF165 (human, UniProt P15692-4 27-191, biotinylated (Sulfo-NHS-LC-Biotin) in the competition assays)
T1 construct: also called hVEGF165; rhVEGF165
T1 sequence (P15692 other isoform, or with tags, fused parts or gaps limits assumed): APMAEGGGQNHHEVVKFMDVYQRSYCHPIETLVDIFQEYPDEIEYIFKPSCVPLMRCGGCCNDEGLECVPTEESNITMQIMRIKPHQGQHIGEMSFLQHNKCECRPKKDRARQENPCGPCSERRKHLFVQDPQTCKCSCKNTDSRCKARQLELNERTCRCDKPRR
Assay: Biacore, periplasmic extract, VEGF165 chip, two phase decay fit
Set-up: unit not given here
readout-name: kd(slow)
Just the number, please.

1) VEGFBII23A06 (VHH, not shown: small tags and cut ends, also purified from E. coli TG1; also called VEGFBII23A6; 23A6) VHH: EVQLVESGGGLVQPGDSLKLSCAFSGRTFSSYSMGWFRQAQGKEREFVVAISSGGFIYDAVSLEGRFTISRDNTKNTVYLQTPSLKPEDTAVYYCAASRAYGSSRLRLADTYDYWGQGTQVTVSS :: 3.7e-05
2) VEGFBII22A11 (VHH, not shown: small tags and cut ends) VHH: EVQLVESGGGLVQPGDSLKLSCAFSGRTFSSYSMAWFRQAQGKEREFVVAISSGGFIYDAVSLEGRFTISRDNTKNTVYLQTPSLKPEDTAVYYCAASRAYGSSRLRLADTYDYWGQGTQVTVSS :: 4.7e-05
3) VEGFBII40F02 (VHH, not shown: small tags and cut ends) VHH: EVQLVESGGGLVQPGDSLKLSCAFSGRTFSSYSMAWFRQAQGKEREFVVAISSGGFIYDAVSLEGRFTISRDNTKNTVYLQTPSLKPEGTAVYYCAASRAYGSSRLRLADTYDYWGQGTQVTVSS :: 9.8e-05

Quick one: kd(slow) for VEGFBII23E05 (VHH, not shown: small tags and cut ends) VHH: EVQLVESEGGLVQPGDSLKLSCVASGRTSSSYSMGWFRQAQGKEREFVVAISSGGYIYDSVSLQGRFTISRDNTKNTVYLQTPSLKPEDTAVYYCAASRAYGSSRLRLADTYDYWGQGTQVTVSS ?
6.9e-05

Quick one: kd(slow) for VEGFBII22A10 (VHH, not shown: small tags and cut ends) VHH: EVQLVESGGGLVQPGDSLKLSCAFSGRTFSSYSMGWFRQAQGKEREFVVAISSSGGYIYDSVSLEGRFTISRDNTKNTVYLQTPSLKPEDTADYYCAASRAYGSSRLRLADTYDYWGQGTQVTVSS ?
4e-05

Quick one: kd(slow) for VEGFBII39E02 (VHH, not shown: small tags and cut ends) VHH: EVQLVESGGGLVQPGDPLKLSCAFSGRTFSSYSMGWFRQAQGKEREFVVAISSSGGYIYDSVSLEGRFTISRDNTKNTVYLQTPSLKPEDTADYYCAASRAYGSSRLRLADTYDYWGQGTQVTVSS ?
0.00024

Quick one: kd(slow) for VEGFBII23A03 (VHH, not shown: small tags and cut ends) VHH: EVQLVESGGGLVQPGDSLKLSCVASGRTFSSYSMGWFRQAQGKEREFVVAISSGGYIYDSVSLQGRFTISRDNTKNTVYLQTPSLKPEDTAVYYCAASRAYGSSRLRLADTYDYWGQGTQVTVSS ?
3.2e-05

Quick one: kd(slow) for VEGFBII23D11 (VHH, not shown: small tags and cut ends) VHH: EVQLVESGGGLVQPGDSLRLSCAFSGRTFSSYSMAWFRQAQGKEREFVVAISSGGFIYDAVSLEGRFTISRDNTKNTVYLQTPSLKPEDTAVYYCAASRAYGSSRLRLADTYDYWGQGTQVTVSS ?
5.8e-05
